- System: DND1 F93A;NANOS3 ZF+C (human;human, UniProt Q8IYX4;P60323 1-230;55-173, F93A|)
- Sequence (Q8IYX4 1-230 F93A, chain 1 of 2): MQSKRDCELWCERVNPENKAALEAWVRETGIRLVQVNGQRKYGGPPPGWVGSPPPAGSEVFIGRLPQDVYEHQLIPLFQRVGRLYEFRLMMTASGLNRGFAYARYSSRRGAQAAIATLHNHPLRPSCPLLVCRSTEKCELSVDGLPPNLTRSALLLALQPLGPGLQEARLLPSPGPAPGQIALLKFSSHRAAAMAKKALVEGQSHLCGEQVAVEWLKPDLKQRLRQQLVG
- Sequence (P60323 55-173, chain 2 of 2): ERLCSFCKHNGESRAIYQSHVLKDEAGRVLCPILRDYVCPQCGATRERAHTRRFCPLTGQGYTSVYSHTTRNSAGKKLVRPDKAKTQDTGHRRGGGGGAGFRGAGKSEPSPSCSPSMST
- Test protocol: MST; DND1 titrated, 2 uM NANOS3 ZF+C; MST: 20 mM HEPES pH 7.4, 150 mM NaCl, 1 mM DTT, 0.05% Tween20 and 10 ug/mL yeast tRNA after 1:1 mixing, 5 nM Cy5-RNA, partner 2 uM final, 30 min at room temperature, measured at 25 C
- Conditions: protein: recombinant;recombinant; tags: His6-SUMO removed by Ulp1;His6-SUMO removed by Ulp1; N-terminal Ser (residue 54) from BamHI site; copies: 1;1; label: 5'-Cy5
Test readout: pKd
As a rule, pKd stands for the negative log10 of the concentration, concentration in M.

// pKd lookup, binder = AUAUGAAUUU (ssRNA) [CDK1 N3-DRE (Cy5)] , result: 5.96
